Target: human AspH (His6-AspH315–758) (Homo sapiens, UniProt Q12797)
Construct: N-Terminally His6-tagged human AspH315–758 (His6-AspH315–758) was produced in Escherichia coli BL21 (DE3) cells; made in house; host or cells: Escherichia coli BL21 (DE3), pET-28a(+) vector
Sequence (Q12797 315-758): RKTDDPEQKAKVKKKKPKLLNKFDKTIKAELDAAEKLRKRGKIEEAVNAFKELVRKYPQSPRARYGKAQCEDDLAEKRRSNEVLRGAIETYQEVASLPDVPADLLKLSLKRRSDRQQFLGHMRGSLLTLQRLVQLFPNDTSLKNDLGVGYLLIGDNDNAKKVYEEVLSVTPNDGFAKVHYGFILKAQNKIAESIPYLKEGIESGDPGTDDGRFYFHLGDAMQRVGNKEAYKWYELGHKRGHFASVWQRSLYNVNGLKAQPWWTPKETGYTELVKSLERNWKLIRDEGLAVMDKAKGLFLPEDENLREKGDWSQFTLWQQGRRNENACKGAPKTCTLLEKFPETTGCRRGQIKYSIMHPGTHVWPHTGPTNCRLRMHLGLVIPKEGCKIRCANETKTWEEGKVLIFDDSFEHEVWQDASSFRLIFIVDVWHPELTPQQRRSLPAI
Experiment: SPE-MS AspH inhibition assay (hFX-CP101-119 substrate hydroxylation)
Assay type: biochemical
Conditions: AspH-inhibitor screening, 384-well Plate 1
RESULT TYPE: Plate 1 (% inhibition)

Worked set:
molecule=S=c1[nH]cnc2nc[nH]c12 result_type="Plate 1 (% inhibition)" test_value=7.41%
molecule="CC[C@]1(O)C[C@H]2CN(CCc3c([nH]c4ccccc34)[C@@](C(=O)OC)(c3cc4c(cc3OC)N(C=O)[C@H]3[C@@](O)(C(=O)OC)[C@H](OC(C)=O)[C@]5(CC)C=CCN6CC[C@]43[C@@H]65)C2)C1.O=S(=O)(O)O [Vincristine Sulfate (Oncovin)]" result_type="Plate 1 (% inhibition)" test_value=7.89%

[ask] Requested read-out: Plate 1 (% inhibition). Entry: CCC1(c2ccc(N)cc2)CCC(=O)NC1=O (stereo not drawn) [Aminoglutethimide]
[reply] 11.22%

[ask] Requested read-out: Plate 1 (% inhibition). Entry: Cn1cncc1[C@@](N)(c1ccc(Cl)cc1)c1ccc2c(c1)c(-c1cccc(Cl)c1)cc(=O)n2C [Tipifarnib (Zarnestra)]
[reply] -67.01%
